- Measured On: UniProt P04049
- Sequence (P04049 whole entry): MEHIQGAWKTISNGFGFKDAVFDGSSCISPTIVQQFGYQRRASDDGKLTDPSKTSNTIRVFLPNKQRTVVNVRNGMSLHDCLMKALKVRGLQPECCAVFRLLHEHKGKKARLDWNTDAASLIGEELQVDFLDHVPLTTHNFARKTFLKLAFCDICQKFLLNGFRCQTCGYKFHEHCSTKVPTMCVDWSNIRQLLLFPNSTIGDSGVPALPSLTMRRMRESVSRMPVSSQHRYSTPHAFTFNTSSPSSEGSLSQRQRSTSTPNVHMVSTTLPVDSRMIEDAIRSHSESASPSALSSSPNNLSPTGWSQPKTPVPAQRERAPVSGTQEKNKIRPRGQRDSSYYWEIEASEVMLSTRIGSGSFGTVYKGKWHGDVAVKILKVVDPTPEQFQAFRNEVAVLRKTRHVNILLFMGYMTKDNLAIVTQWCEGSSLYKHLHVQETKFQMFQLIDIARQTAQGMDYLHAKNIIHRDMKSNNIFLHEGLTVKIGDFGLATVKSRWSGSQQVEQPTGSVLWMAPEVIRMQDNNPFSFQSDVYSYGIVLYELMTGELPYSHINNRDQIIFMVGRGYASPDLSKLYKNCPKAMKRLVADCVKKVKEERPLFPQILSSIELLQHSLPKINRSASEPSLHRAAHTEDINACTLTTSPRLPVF
- Protocol Text: In vitro kinase assay: c-Raf HTRF assay with 6H-MEK as substrate
- Recorded Conditions: 6H-MEK substrate, dose response
- Protocol: In vitro enzyme activity was determined with c-Raf using a HTRF assay with 6H-MEK as substrate (Dose Response). The assay utilizes 6H-MEK as the substrate. Upon c-Raf phosphorylation, phosphorylated 6H-MEK is detected with rabbit anti-phospho-MEK1/2, Eu-labeled anti-rabbit, and APC-labeled anti-6H antibodies. […] Assays were read with Envision from PerkinElmer, HTRF reading mode with 412 mirrors. […] Read HTRF signals at 615 nm and 665 nm on the Envision. […]
Overview of reported pIC50 across a group of compounds:
Notebook: values listed as pIC50 are -log10 of the concentration (mol/L).

Observe how each entry below is paired with its result.
Nc1ncc(C(=O)NCCO)c2scc(COc3cccc(OCc4cccc(Cl)c4)c3)c12
7.66
CCOC(=O)c1cnc(N)c2c(COc3cccc(OCc4ccccc4)c3)csc12
6.08
CCOC(=O)c1cnc(N)c2c(COc3cccc(OCc4ccc(OC)c(C(F)(F)F)c4)c3)csc12
6.49

Now consider the entry below.
Consider the compound "CCOC(=O)c1cnc(N)c2c(COc3cccc(OCc4cccc(OC)c4)c3)csc12" and give its measured pIC50.
5.70
